molecular target: ERK2 enzyme (Homo sapiens (Human)); assay: Z'-LYTE kinase assay, inhibition of ERK activity; format: biochemical; conditions: In vitro; ERK2 enzyme, 100 μM ATP
Sequence (P28482 whole entry): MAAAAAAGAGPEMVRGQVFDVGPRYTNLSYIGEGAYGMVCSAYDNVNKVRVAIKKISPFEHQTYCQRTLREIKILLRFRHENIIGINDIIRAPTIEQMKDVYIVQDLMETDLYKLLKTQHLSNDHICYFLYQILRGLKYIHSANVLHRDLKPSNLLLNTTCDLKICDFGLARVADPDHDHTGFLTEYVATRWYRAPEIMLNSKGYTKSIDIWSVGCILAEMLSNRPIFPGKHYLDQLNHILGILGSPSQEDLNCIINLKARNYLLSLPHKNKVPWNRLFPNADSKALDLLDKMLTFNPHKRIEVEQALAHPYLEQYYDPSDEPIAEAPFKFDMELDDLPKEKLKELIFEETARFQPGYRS

smilesText	IC50
Cc1cc(-c2n[nH]c3cc4c(cc23)CN([C@H](C)c2ccc(Cl)cc2)C(=O)N4)ccn1	50 to 250 nM

###

Measured pIC50, listed per entry for reference.
system: phospho-p90 RSK (RSK1 Thr359/Ser363) in A375 (Braf V600E) cells; test: Phospho-p90 RSK ELISA using A375 (Braf V600E) cells; type: cell-based; conditions: Homo sapiens, A-375, 2 hours compound treatment, read-out: Cellular Phospho-p90RSK IC50
pIC50: −log10 of the molar value.

smilesText	testedTarget	pIC50
Cc1cc(-c2n[nH]c3cc4c(cc23)CN([C@@H]2CCN(CCC(C)C)C2)C(=O)N4)ccn1	phospho-p90 RSK (RSK1 Thr359/Ser363) in A375 (Braf V600E) cells	6.00 to 6.60
Cc1cc(-c2n[nH]c3cc4c(cc23)CN(Cc2cccs2)C(=O)N4)cc(C)n1	phospho-p90 RSK (RSK1 Thr359/Ser363) in A375 (Braf V600E) cells	≥ 6.60
Cc1cc(-c2n[nH]c3cc4c(cc23)CN(C2CN(CCc3ccccc3)C2)C(=O)N4)ccn1	phospho-p90 RSK (RSK1 Thr359/Ser363) in A375 (Braf V600E) cells	6.00 to 6.60
Cc1cc(-c2n[nH]c3cc4c(cc23)CN([C@@H]2CCCN(Cc3cccnc3C)C2)C(=O)N4)ccn1	phospho-p90 RSK (RSK1 Thr359/Ser363) in A375 (Braf V600E) cells	6.00 to 6.60
O=C1Nc2cc3[nH]nc(C4CC4)c3cc2CN1Cc1ccc(F)c(Cl)c1	phospho-p90 RSK (RSK1 Thr359/Ser363) in A375 (Braf V600E) cells	< 6.00
Cc1cc(-c2n[nH]c3cc4c(cc23)CN([C@@H]2CCCN(Cc3csc(C)n3)C2)C(=O)N4)ccn1	phospho-p90 RSK (RSK1 Thr359/Ser363) in A375 (Braf V600E) cells	≥ 6.60
Cc1cc(-c2n[nH]c3cc4c(cc23)CN([C@@H]2CCC[C@@H](NCc3ccccc3)C2)C(=O)N4)ccn1	phospho-p90 RSK (RSK1 Thr359/Ser363) in A375 (Braf V600E) cells	6.00 to 6.60
